test system: Psudomonas aeruginosa A3; test: Antimicrobial activity, MIC by agar dilution method (Psudomonas aeruginosa A3); assay type: cell-based; details: agar dilution method, Muller-Hinton medium; read-out: MIC (Psudomonas aeruginosa A3)
EXPERIMENTAL READOUT: MIC (µg/mL)
Give the value, in units of µg/mL, as a plain number.

**Query** Value lookup for MIC; key = O=CNC=Cc1ccc(O)c(O)c1 [Compound 14, (2-formamidovinyl)-3,4-dihydroxybenzene]
**Result** 25

**Query** What do you get for [C-]#[N+]C=Cc1cc(Br)ccc1O ?
**Result** 12.5

**Query** What do you get for O=CNC=Cc1cccc(O)c1O [Compound 13, (2-formamidovinyl)-2,3-dihydroxybenzene] ?
**Result** 100

---

system: L 1210 leukemia cells; experiment: Growth inhibition activity against cultured carcinoma cells (L 1210 leukemia cells); assay type: cell-based; details: Mus musculus, L1210, 72 h; L 1210 leukemia cells, 3 days, 37° C., 5% CO2; read-out: L 1210 IC50 (50%-inhibition concentration against growth)
EXPERIMENTAL READOUT: IC50

{"columns": ["MOLECULE", "RESULT"],
 "data": [
  ["O=CNC=Cc1ccccc1O [Compound 12, (2-formamidovinyl)-2-hydroxybenzene]", "30 µg/mL"],
  ["[C-]#[N+]C=Cc1cc(Br)ccc1O", "0.25 µg/mL"],
  ["O=CNC=Cc1cc(Br)ccc1O", "12 µg/mL"],
  ["COc1ccc(OC)c(C=CNC=O)c1", "62 µg/mL"]
]}

**Query** Value lookup for IC50; key = O=CNC=Cc1ccc(O)c(O)c1 [Compound 14, (2-formamidovinyl)-3,4-dihydroxybenzene]
**Result** 22 µg/mL

**Query** What do you get for O=CNC=Cc1cccc(O)c1O [Compound 13, (2-formamidovinyl)-2,3-dihydroxybenzene] ?
**Result** 2.2 µg/mL

**Query** What do you get for CC(=O)NC=Cc1cc(O)ccc1O [Compound 18, (2-acetamidovinyl)-2,5-dihydroxybenzene] ?
**Result** 3 µg/mL

**Query** What do you get for COc1ccc(O)c(C=CNC=O)c1 ?
**Result** 23 µg/mL

---

target: tyrosine-specific protein-kinase (epidermal growth factor receptor-kinase, A-431 membrane fraction) (Homo sapiens, UniProt P00533); construct: a membrane fraction of human epidermal carcinoma cells A-431 was used; endogenous in cells; host or cells: A-431 human epidermal carcinoma cells, membrane fraction; assay: TPK-I activity (inhibition of tyrosine-specific protein-kinase / epidermal growth factor receptor-kinase, 32P-ATP, A-431 membrane fraction); type: biochemical
Sequence (P00533 25-1210): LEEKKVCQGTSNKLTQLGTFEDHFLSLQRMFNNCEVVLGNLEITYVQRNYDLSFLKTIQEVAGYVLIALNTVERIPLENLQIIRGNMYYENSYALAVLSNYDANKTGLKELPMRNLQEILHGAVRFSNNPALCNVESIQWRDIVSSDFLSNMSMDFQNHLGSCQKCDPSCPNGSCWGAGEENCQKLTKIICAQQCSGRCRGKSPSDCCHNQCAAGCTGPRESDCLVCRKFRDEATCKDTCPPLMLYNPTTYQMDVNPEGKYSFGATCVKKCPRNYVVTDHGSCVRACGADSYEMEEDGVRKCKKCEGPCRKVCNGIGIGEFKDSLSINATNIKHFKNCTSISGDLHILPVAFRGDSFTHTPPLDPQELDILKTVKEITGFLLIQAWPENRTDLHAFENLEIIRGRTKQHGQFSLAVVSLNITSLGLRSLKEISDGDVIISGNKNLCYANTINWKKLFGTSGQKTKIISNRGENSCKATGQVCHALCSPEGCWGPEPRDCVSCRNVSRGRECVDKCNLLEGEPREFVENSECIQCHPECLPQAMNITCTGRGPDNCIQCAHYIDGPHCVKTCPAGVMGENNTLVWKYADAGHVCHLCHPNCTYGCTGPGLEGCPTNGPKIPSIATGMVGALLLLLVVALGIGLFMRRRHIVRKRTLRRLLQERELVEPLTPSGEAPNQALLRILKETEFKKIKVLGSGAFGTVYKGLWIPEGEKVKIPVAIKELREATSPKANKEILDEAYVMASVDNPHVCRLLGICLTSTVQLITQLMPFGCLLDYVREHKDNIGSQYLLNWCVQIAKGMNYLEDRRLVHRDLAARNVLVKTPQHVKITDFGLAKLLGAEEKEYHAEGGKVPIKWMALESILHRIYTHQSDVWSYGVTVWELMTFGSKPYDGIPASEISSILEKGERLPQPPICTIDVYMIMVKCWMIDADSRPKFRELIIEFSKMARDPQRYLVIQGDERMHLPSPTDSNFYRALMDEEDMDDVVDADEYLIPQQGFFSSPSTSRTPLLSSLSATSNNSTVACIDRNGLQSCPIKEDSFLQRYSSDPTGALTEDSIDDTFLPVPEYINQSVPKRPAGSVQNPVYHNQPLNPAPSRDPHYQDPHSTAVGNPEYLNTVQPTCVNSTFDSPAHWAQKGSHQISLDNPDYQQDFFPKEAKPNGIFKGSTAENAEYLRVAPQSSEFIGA
EXPERIMENTAL READOUT: IC50

**Query** Value lookup for IC50; key = [C-]#[N+]C=Cc1cc(OC)ccc1OC [Compound 3, 2-(2,5-dimethoxyphenyl)vinylisocyanide]
**Result** > 52.9 µM

---

target: tyrosine-specific protein-kinase (epidermal growth factor receptor-kinase, A-431 membrane fraction) (Homo sapiens, UniProt P00533); construct: a membrane fraction of human epidermal carcinoma cells A-431 was used; endogenous in cells; host or cells: A-431 human epidermal carcinoma cells, membrane fraction; assay: TPK-I activity (inhibition of tyrosine-specific protein-kinase / epidermal growth factor receptor-kinase, 32P-ATP, A-431 membrane fraction); type: biochemical; settings: A-431 membrane fraction, EGF, histone, pH 7.4, 0° C., 30 minutes; read-out: TPK-I IC50 (converted)
# key: entry, value: IC50

{"columns": ["COMPOUND SMILES", "IC50"],
 "data": [
  ["[C-]#[N+]C=Cc1cc(Br)ccc1O", "> 28.6 µM"],
  ["COc1ccc(O)c(C=CNC=O)c1", "> 33.1 µM"],
  ["COc1ccc(OC)c(C=CNC=O)c1", "> 145 µM"]
]}

We now examine a further compound.
**Query** Value lookup for IC50; key = O=CNC=Cc1cc(Br)ccc1O
**Result** > 26.4 µM

Reference for the values: patent US4925877A
